# tgt: Solute carrier family 2, facilitated glucose transporter member 1 (Homo sapiens)
# experiment: ST_JUDE_LEISH: Cytotoxicity at 2uM final concentration against transgenic Leishmania Mexicana promastigotes LmGLUT1 that are glucose transport deficient and complemented with the human glucose transporter GLUT1. Activity is measured by DNA content using SYBR green in vitro
# Assay type: functional
recorded_endpoint: inhibition (%)
Quick reminder: number only, in %, skip the unit.

Lookup: Requested read-out inhibition, target or system Solute carrier family 2, facilitated glucose transporter member 1 (Homo sapiens), entry OC(CNc1ccnc(Nc2cccc(Cl)c2)n1)c1ccccc1C(F)(F)F (stereo unspecified)
Found: 4.32

Lookup: Please give the result for O=C(Nc1cccc(-c2cc3ccccc3[nH]2)c1)C1CCN(Cc2ccccc2O)CC1 too.
Found: 10.3

Lookup: Try this compound too: CCOC(=O)c1cnc2cc(N3CCCC3)c(Cl)cc2c1OCC
Found: 1.28

Lookup: Also, Cc1cc(C2CCN(CCCCNC(=O)c3ccc(NC(=O)c4ccc(Cl)cc4)cc3)CC2)c(C)cc1OCc1nccn1C please.
Found: 0.5

Lookup: Let us now turn to N#Cc1ccc(C=CC(=O)NC2CCC(CCN3CCc4ccc(-c5cnccn5)cc4CC3)CC2)cc1 (stereo unspecified)
Found: 4.1

Lookup: Same read-out for CN(C)CCOc1ccc(N2CCN(CCCCNC(=O)c3ccc(/C=C/c4cc(Cl)cc(Cl)c4)cc3)CC2)cc1 ?
Found: -0.63

Lookup: What do we get for Cc1nc2nc(N)nc(N)c2c(C)c1Cc1cccc(C(F)(F)F)c1 ?
Found: -1.41

Lookup: How about CC(C)(C)Cn1cc(-c2ccc(C(=O)NCCc3ccc(S(C)(=O)=O)cc3)cc2)c(N)n1.CC(C)(C)Cn1ncc(-c2ccc(C(=O)NCCc3ccc(S(C)(=O)=O)cc3)cc2)c1N ?
Found: 0.21

Lookup: Now give it for c1cc(CN2CCCCC2)cc(OCCCNc2ccnc3ccccc23)c1 too.
Found: 18

Lookup: Ok, now O=C(Nc1cccc(-c2nn3ccccc3c2-c2ccnc(Nc3ccc(NCCCN4CCOCC4)c(F)c3)n2)c1)c1c(F)cccc1F
Found: 46.9

Lookup: Next compound: CN1CCN(c2cc3c(cc2Br)CCN3C(=O)Nc2ccc(-c3cnc4ccccc4c3)cc2)CC1
Found: 107

Lookup: Input CC1(C)NC(N)=NC(=N)N1OCCCOc1ccccc1Cl
Found: 8.95

Lookup: Repeat for the following compound: O=C(NCc1cccc(F)c1)Nc1ccc(-c2cccc(-c3nc4cc(F)ccc4[nH]3)c2)cc1
Found: 1.98

Lookup: And then COc1cc(NC(=O)CCCN2CCN(c3cccc(Cl)c3Cl)CC2)ccc1N1CCN(C(C)C)CC1 , what is it?
Found: -2.72

Lookup: Field entry: FC(F)(F)c1ccc(/C=C/c2cncnc2Nc2ccc3[nH]c(Cc4ccccc4)nc3c2)cc1
Found: 4.97

Lookup: Likewise for CCC[C@@H](/C=N/N(C)C(=O)OC(C)(C)C)NC(=O)[C@H](CC(C)C)NC(=O)c1cc2cccc(OC)c2o1 ?
Found: 3.02

Lookup: Now the same for N#Cc1ccc2c(c1)CCN(CCC1CCC(NC(=O)/C=C/c3ccc4[nH]ccc4c3)CC1)CC2 (stereo unspecified)
Found: 1.65

Lookup: What would you report for CCC(C)OC(=O)C1=C(C)NC2=C(C(=O)CC(c3ccc(OC)c(OC)c3)C2)C1c1cccc(O)c1 (stereo unspecified) ?
Found: 4.07

Lookup: Could you do the same for CCC(NCc1ccc(-c2cncc(C(=O)NCC(C)C)c2)cc1)c1ccccc1 (stereo unspecified) , please?
Found: 7.89

Lookup: Next compound up: CS(=O)(=O)c1ccc(CCNCc2ccc(-c3ccc(CN(C(=O)c4ccco4)C4CCN(Cc5ccccc5)CC4)cc3)nc2)cc1
Found: 1.33

Lookup: Record: CC(C)CNCc1ccc(-c2ccc(CN(CCCN3CCN(C)CC3)C(=O)CCC3CCCC3)cc2)cc1
Found: 55.1

Lookup: Same for O=C(/C=C/c1ccc(Cl)c(Cl)c1)NCCCCCN1CCN(C(=O)Nc2ccc(C(F)(F)F)cc2)CC1
Found: 2

Lookup: Try this compound next: COc1cc(-c2nc(C(C)(C)CN)[nH]c2-c2ccncc2)ccc1Br
Found: 7.38

Lookup: Now consider O=[N+]([O-])c1ccc(C(O)CNCCc2ccccc2)cc1OCc1ccccc1 (stereo unspecified) .
Found: 14.1

Lookup: Can you handle O=C(Nc1ccc(Cl)cc1)N[C@H]1CCN(CCCCCNC(=O)C2CC2c2ccc(Cl)c(Cl)c2)C1 (stereo partly specified) next?
Found: 8.91

Lookup: Next up: CCN(CC)CCOc1c(Cl)cc(Cl)cc1CNCCCNc1cc(=O)c2ccccc2[nH]1
Found: 0.34

Lookup: # repeat for Cc1cnc(CN(Cc2ccc(-c3ccc(CNCCc4ccc(S(C)(=O)=O)cc4)cn3)cc2)C(=O)c2nn(-c3ccccc3)nc2C)cn1
Found: 5.03

Lookup: Entry CN1CCCC(CN2CCN(Cc3ccc(-c4ccc(-c5nc6cc(F)ccc6[nH]5)s4)cc3)CC2)C1 (stereo unspecified) please
Found: 5.94

Lookup: Could you do the same for Cc1ccccc1C1CCN(C2CCC(NC(=O)C3=Cc4ccccc4OC3)CC2)CC1 (stereo unspecified) , please?
Found: 5.24

Lookup: Try this compound next: COc1ccccc1CC1CCCN(C2CCC(NC(=O)c3cc4ccccc4[nH]3)CC2)C1 (stereo unspecified)
Found: 0.46

Lookup: What do you get for CC(=O)N1CCN(c2ccc(NC(=O)c3oc(-c4ccccc4)nc3C(F)(F)F)cn2)CC1 ?
Found: 1.92

Lookup: Consider next the compound Cc1cc(NCCc2ccc(O)cc2)nc(NCC(c2ccccc2)c2ccccc2)n1 in the same way.
Found: 12.9

Lookup: Now consider COc1ccc(CNCc2ccc(-c3ccc(-c4nc5cc(C(F)(F)F)ccc5[nH]4)cc3)cc2)cc1 and answer again.
Found: 3.97

Lookup: Also, Cc1ccc(Cn2cnc(N3CC(C)NC(C)C3)cc2=O)cc1NC(=O)Nc1ccc(-c2ccccc2)cc1 (stereo unspecified) please.
Found: -0.2

Lookup: Also check O=C(/C=C/c1ccc(Cl)c(Cl)c1)NCCCCCCN1CCCN(C(=O)Nc2ccc(F)c(F)c2)CC1
Found: 0.72

Lookup: Follow-up entry: O=C(/C=C/c1ccccc1Cl)Nc1ccc(Br)c(OCCN2CCN(CCN3CCOCC3)CC2)c1
Found: 1.48
